- protocolNotes: Solubility in HCl 0.01N (pH 1.0) and phosphate saline buffer (pH 7.4), LC-MSMS
- conditionDetails: phosphate saline buffer, pH 7.4, aqueous buffer, thermodynamic from solid
measurementName: solubility at 24 h (µM)

COc1ccc(C#N)cc1/C=C(\C#N)c1cn(C(=O)CCCCP(=O)(O)O)c2ccc(Br)cc12 [Example 1] ... 497
COc1ccc(C#N)cc1/C=C(\C#N)c1cn(C(=O)CCP(=O)([O-])O)c2ccc(Br)cc12.[Na+] [Example 7] ... 103
COc1ccc(C#N)cc1/C=C(\C#N)c1cn(C(=O)CCCCCCP(=O)(O)O)c2ccc(Br)cc12 [Example 3] ... 294
COc1ccc2c(/C(C#N)=C/c3cc(C#N)ccc3OC)cn(C(=O)CCCCP(=O)(O)O)c2c1 [Example 4] ... 33

* * *

- protocolNotes: physchem
- conditionDetails: pH 7.4, aqueous buffer, thermodynamic from solid
Structures can show the parent of a compound that is named as a salt.
measurementName: solubility (µM)

COc1ccc(C#N)cc1/C=C(\C#N)c1cn(C(=O)OCc2ccc(NC(=O)[C@H](CCCNC(N)=O)NC(=O)[C@@H](NC(=O)CCOCCOCCOCCOCCNC(=O)CCN3C(=O)C=CC3=O)C(C)C)cc2)c2ccc(Br)cc12 ... 2
COc1ccc(C#N)cc1/C=C(\C#N)c1cn(C(=O)OCc2ccc(NC(=O)[C@H](CCCNC(N)=O)NC(=O)[C@@H](NC(=O)[C@H](CS(=O)(=O)O)NC(=O)CCOCCOCCOCCOCCNC(=O)CCN3C(=O)C=CC3=O)C(C)C)cc2)c2ccc(Br)cc12 ... 175
COc1ccc(C#N)cc1/C=C(\C#N)c1cn(C(=O)OCc2ccc(NC(=O)[C@H](CCCNC(N)=O)NC(=O)[C@@H](N)C(C)C)cc2)c2ccc(Br)cc12 [Example 21, hydrochloride] ... 471
COc1ccc(C#N)cc1/C=C(\C#N)c1cn(C(=O)OCc2ccc(NC(=O)[C@H](CCCNC(N)=O)NC(=O)[C@@H](NC(=O)C(CS(=O)(=O)O)NC(=O)OC(C)(C)C)C(C)C)cc2)c2ccc(Br)cc12 (stereo partly shown) ... 201

* * *

- protocolNotes: Solubility in HCl 0.01N (pH 1.0) and phosphate saline buffer (pH 7.4), LC-MSMS
- conditionDetails: phosphate saline buffer, pH 7.4, aqueous buffer, thermodynamic from solid
Parameter solubility at 24 h: see the listing below.
measurementName: solubility at 24 h (µM)

COc1ccc(C#N)cc1/C=C(\C#N)c1cn(C(=O)CCCP(=O)([O-])O)c2ccc(Br)cc12.[Na+] ... 71
COc1ccc(C#N)cc1/C=C(\C#N)c1cn(C(=O)CCCCP(=O)([O-])O)c2ccc(Br)cc12.[Na+] ... 206
COc1ccc(C#N)cc1/C=C(\C#N)c1cn(C(=O)CCCP(=O)(O)O)c2ccc(Br)cc12 ... 35
COc1ccc(C#N)cc1/C=C(\C#N)c1cn(C(=O)CCCCP(=O)([O-])[O-])c2ccc(Br)cc12.[Na+].[Na+] ... 180

* * *

- protocolNotes: Solubility in HCl 0.01N (pH 1.0) and phosphate saline buffer (pH 7.4), LC-MSMS
- conditionDetails: HCl 0.01N, pH 1, simulated gastric fluid, thermodynamic from solid
measurementName: solubility at 24 h

COc1ccc(C#N)cc1/C=C(\C#N)c1cn(C(=O)CCP(=O)([O-])O)c2ccc(Br)cc12.[Na+] [Example 7] ... < 5 µM
COc1ccc(C#N)cc1/C=C(\C#N)c1cn(C(=O)CCCP(=O)(O)O)c2ccc(Br)cc12 [Example 16] ... < 10 µM
COc1ccc(C#N)cc1/C=C(\C#N)c1cn(C(=O)CCCP(=O)([O-])O)c2ccc(Br)cc12.[Na+] [Example 8] ... < 5 µM
COc1ccc(C#N)cc1/C=C(\C#N)c1c[nH]c2ccc(Br)cc12 [Example 38 of WO 2014/086964, reference compound] ... < 5 µM

These entries and their values trace back to patent US20250382317A1.
